Target: human recombinant HDAC6 (Homo sapiens)
Experiment: HDAC6 enzyme activity inhibition test (HDAC Fluorometric Drug Discovery Kit)
Settings: human recombinant HDAC6; same protocol as HDAC1
property_label: IC50 (nM)

Worked set:
query_smiles=FC(F)c1nnc(-c2ccc(Cn3nc(-c4cccc(CN5CCOCC5)c4)oc3=S)nc2)o1 measure_unit=nM value=97.8
query_smiles=FC(F)c1nnc(-c2ccc(Cn3nc(-c4ccc(CN5CCC5)s4)oc3=S)nc2)o1 measure_unit=nM value=45.1
query_smiles=CN(C)Cc1cccc(-c2nn(Cc3ccc(-c4nnc(C(F)F)o4)cn3)c(=S)o2)c1 measure_unit=nM value=101
query_smiles=O=c1sc(-c2ccc(C3CCN(C4COC4)CC3)cc2)nn1Cc1ccc(-c2nnc(C(F)F)o2)cn1 measure_unit=nM value=118
query_smiles=O=c1oc(-c2cccc(N3CCN(C4COC4)CC3)n2)nn1Cc1ccc(-c2nnc(C(F)F)o2)cn1 measure_unit=nM value=83.3
query_smiles=CC(C)N1CCN(c2ccc(-c3nn(Cc4ccc(-c5nnc(C(F)F)o5)cn4)c(=O)o3)c(F)c2)CC1 measure_unit=nM value=77.9
query_smiles=O=C1OCC(c2ccccn2)=NN1Cc1ccc(-c2nnc(C(F)F)o2)cn1 measure_unit=nM value=119
query_smiles=CC1CCN(Cc2ccc(-c3nn(Cc4ncc(-c5nnc(C(F)F)o5)cc4F)c(=S)o3)cc2)CC1 measure_unit=nM value=91
query_smiles=O=c1oc(-c2ccc(CN3CCCC3)cc2)nn1Cc1ccc(-c2nnc(C(F)F)o2)cn1 measure_unit=nM value=98.8
query_smiles=CN1CCN(c2ccc(-c3nn(Cc4ccc(-c5nnc(C(F)F)o5)cn4)c(=O)o3)c(F)c2)CC1 measure_unit=nM value=103

a = O=c1oc(-c2ccc(N3CCNCC3)cc2)nn1Cc1ccc(-c2nnc(C(F)F)o2)cn1
b = CN1CCN(c2ccc(-c3nn(Cc4ccc(-c5nnc(C(F)F)o5)cn4)c(=O)o3)cc2)CC1
Param pair: a , b . Output: the one whose IC50 is numerically greater. Use the label to indicate which entry you chose. b

A = CN1CCC(c2ccc(-c3nn(Cc4ccc(-c5nnc(C(F)F)o5)cn4)c(=O)o3)cc2)CC1
B = Fc1cc(-c2nnc(C(F)F)o2)cnc1Cn1nc(-c2cccnc2)oc1=S
Form: Entry with minimum IC50 (choose one): A / B Use the label to indicate which entry you chose. A

a = Cc1ncc(-c2nn(Cc3ncc(-c4nnc(C(F)F)o4)cc3F)c(=S)o2)s1
b = O=c1oc(-c2ccc3ccccc3n2)nn1Cc1ccc(-c2nnc(C(F)F)o2)cn1
Param pair: a , b . Output: the one whose IC50 is numerically greater. Use the label to indicate which entry you chose. a

----------
Molecular target: human recombinant HDAC6 (Homo sapiens)
Experiment: HDAC6 enzyme activity inhibition test (HDAC Fluorometric Drug Discovery Kit)
Conditions: human recombinant HDAC6; same protocol as HDAC1
pIC50: −log10 of the molar value.
property_label: pIC50

P = Fc1cc(-c2nnc(C(F)F)o2)cnc1Cn1nc(-c2ccc(CN3CCC3)s2)oc1=S [Compound 130]
Q = CC(C)N1CCC(c2cc(-c3nn(Cc4ccc(-c5nnc(C(F)F)o5)cn4)c(=S)o3)ccc2F)CC1 [Compound 116]
Param pair: P , Q . Output: the one whose pIC50 is numerically greater. Use the label to indicate which entry you chose. P
(P: 7.18, Q: 6.93)

P = Fc1cc(-c2nnc(C(F)F)o2)cnc1Cn1nc(-c2cnccn2)oc1=S [Compound 53]
Q = CC(C)N1CCN(c2cccc(-c3nn(Cc4ccc(-c5nnc(C(F)F)o5)cn4)c(=O)o3)c2)CC1 [Compound 38]
Form: Entry with minimum pIC50 (choose one): P / Q Use the label to indicate which entry you chose. P

----------
Molecular target: human recombinant HDAC6 (Homo sapiens)
Sequence (Q9UBN7 1-1215): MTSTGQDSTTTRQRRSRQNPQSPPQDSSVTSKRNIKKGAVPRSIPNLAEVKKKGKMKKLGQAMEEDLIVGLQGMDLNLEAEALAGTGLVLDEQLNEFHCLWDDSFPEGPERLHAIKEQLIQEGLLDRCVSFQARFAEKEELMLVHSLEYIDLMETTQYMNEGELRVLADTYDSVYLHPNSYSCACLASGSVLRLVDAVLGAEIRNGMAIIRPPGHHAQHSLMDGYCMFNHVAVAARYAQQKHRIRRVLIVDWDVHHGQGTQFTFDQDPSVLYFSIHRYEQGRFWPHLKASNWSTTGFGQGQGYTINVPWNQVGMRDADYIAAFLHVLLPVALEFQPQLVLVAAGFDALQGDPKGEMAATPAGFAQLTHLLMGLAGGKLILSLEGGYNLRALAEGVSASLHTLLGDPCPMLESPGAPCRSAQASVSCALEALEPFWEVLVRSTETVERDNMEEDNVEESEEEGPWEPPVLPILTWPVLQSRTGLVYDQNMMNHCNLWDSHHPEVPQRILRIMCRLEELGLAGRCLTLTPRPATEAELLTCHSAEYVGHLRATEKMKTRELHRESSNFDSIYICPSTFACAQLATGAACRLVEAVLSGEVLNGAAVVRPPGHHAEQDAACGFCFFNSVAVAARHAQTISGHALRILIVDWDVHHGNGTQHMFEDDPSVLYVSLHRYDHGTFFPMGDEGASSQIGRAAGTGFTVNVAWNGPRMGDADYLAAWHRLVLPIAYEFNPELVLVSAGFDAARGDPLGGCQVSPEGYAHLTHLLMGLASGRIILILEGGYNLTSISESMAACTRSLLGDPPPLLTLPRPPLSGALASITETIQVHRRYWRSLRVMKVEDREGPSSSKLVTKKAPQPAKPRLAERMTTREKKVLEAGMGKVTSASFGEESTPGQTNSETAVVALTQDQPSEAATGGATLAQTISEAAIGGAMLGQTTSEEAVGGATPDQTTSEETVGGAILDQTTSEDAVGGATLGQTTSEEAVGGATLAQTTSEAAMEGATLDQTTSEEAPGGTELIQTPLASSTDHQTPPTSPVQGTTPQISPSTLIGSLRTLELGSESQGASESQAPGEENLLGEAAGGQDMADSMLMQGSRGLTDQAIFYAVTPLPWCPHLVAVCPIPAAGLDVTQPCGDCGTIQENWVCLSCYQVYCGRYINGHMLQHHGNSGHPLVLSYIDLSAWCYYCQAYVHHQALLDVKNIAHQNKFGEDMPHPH
Assay: HDAC6 enzyme activity inhibition test (HDAC Fluorometric Drug Discovery Kit)
Settings: human recombinant HDAC6; same protocol as HDAC1
property_label: IC50 (nM)

Worked set:
query_smiles=CCN(CC)Cc1cccc(-c2nn(Cc3ncc(-c4nnc(C(F)F)o4)cc3F)c(=S)o2)c1 property_label=IC50 value=79.5
query_smiles=CNCc1ccc(-c2nn(Cc3ncc(-c4nnc(C(F)F)o4)cc3F)c(=S)o2)cc1 property_label=IC50 value=33.9

a = O=c1oc(-c2cccs2)nn1Cc1ccc(-c2nnc(C(F)F)o2)cn1
b = CC(C)N1CCN(c2nccc(-c3nn(Cc4ccc(-c5nnc(C(F)F)o5)cn4)c(=S)o3)n2)CC1
Form: Entry with minimum IC50 (choose one): a / b Use the label to indicate which entry you chose. b
(b: 56.9 nM, a: 84.9 nM)

A = Fc1cccc(-c2nn(Cc3ncc(-c4nnc(C(F)F)o4)cc3F)c(=S)o2)c1
B = CN1CCN(c2cccc(-c3nn(Cc4ccc(-c5nnc(C(F)F)o5)cn4)c(=S)o3)c2)CC1
Form: Entry with minimum IC50 (choose one): A / B Use the label to indicate which entry you chose. B
(B: 43.5 nM, A: 114 nM)

----------
Target: human recombinant HDAC6 (Homo sapiens)
Sequence (Q9UBN7 1-1215): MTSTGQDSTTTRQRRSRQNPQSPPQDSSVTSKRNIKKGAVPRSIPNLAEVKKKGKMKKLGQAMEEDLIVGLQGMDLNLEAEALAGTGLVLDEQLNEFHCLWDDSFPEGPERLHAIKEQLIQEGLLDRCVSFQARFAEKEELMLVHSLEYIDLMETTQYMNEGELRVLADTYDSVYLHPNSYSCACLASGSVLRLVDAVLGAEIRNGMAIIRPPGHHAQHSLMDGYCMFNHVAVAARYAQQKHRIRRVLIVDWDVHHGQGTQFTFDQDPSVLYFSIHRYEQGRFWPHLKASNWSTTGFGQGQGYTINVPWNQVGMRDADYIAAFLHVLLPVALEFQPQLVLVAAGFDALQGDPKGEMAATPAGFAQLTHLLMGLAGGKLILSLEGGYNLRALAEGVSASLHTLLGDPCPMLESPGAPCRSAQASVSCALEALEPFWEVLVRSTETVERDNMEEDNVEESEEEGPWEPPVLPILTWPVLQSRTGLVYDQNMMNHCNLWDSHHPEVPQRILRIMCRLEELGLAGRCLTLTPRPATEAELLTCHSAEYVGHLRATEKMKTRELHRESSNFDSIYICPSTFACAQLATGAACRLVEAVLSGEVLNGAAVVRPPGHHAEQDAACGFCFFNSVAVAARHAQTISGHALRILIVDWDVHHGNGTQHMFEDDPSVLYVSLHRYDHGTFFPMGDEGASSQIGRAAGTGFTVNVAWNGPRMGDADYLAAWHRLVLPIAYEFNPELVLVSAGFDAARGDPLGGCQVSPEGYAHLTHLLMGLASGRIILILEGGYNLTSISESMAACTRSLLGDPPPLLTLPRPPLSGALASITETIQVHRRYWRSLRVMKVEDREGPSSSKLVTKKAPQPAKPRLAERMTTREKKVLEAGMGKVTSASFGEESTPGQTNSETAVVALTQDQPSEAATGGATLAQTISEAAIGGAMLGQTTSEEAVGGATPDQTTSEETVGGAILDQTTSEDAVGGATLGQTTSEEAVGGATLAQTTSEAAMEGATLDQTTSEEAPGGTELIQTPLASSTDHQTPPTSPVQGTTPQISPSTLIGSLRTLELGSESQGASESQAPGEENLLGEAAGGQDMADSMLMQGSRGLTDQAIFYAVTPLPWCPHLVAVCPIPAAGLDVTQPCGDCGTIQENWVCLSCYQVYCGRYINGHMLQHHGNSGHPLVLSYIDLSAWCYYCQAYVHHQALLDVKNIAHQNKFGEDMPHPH
Test: HDAC6 enzyme activity inhibition test (HDAC Fluorometric Drug Discovery Kit)
Details: human recombinant HDAC6; same protocol as HDAC1
Experimental: The following experiment was conducted to confirm the HDAC6 selectivity of the compound represented by Chemical Formula I of the present invention through the HDAC1 and HDAC6 enzyme activity inhibition test. HDAC enzyme activity was measured using HDAC Fluorometric Drug Discovery Kit (BML-AK511, 516) manufactured by Enzo Life Science. […] Then, the fluorescence value (Ex 360, Em 460) was measured using a multiplate reader (Flexstation 3, Molecular Device). […]
property_label: IC50 (nM)

compound=O=c1oc(-c2cccc(N3CCNCC3)c2)nn1Cc1ccc(-c2nnc(C(F)F)o2)cn1 measure_unit=nM value=78.1
compound=CC(C)N1CCN(Cc2ccc(-c3nn(Cc4ccc(-c5nnc(C(F)F)o5)cn4)c(=S)o3)cc2)CC1 measure_unit=nM value=74.7
compound=O=c1sc(-c2cccc(CN3CCN(C4CS(=O)(=O)C4)CC3)c2)nn1Cc1ccc(-c2nnc(C(F)F)o2)cn1 measure_unit=nM value=93.1

P = CC1CC(N2CCC(c3cccc(-c4nn(Cc5ccc(-c6nnc(C(F)F)o6)cn5)c(=O)o4)c3)CC2)C1 (centres unmarked)
Q = CC1CCN(Cc2cccc(-c3nn(Cc4ccc(-c5nnc(C(F)F)o5)cn4)c(=S)o3)c2)CC1
Param pair: P , Q . Output: the one whose IC50 is numerically greater. Use the label to indicate which entry you chose. Q
